# METHOD_DESCRIPTION: Cytotoxicity against human A549 cells assessed as cell growth inhibition after 72 hrs by MTT assay
# Format: functional, cell-based
# CONDITION_INFO: A549, 72 h
pIC50: −log10 of the molar value.

CHEM_SMILES: Cc1ccc(-c2cc(C(=O)NCCCCCCC(=O)NO)nn2-c2ccc(S(N)(=O)=O)cc2)cc1
RELATION_SIGN: <
pIC50: 4.00

CHEM_SMILES: COc1ccc2c(c1)c(CC(=O)NCCCCCC(=O)NO)c(C)n2C(=O)c1ccc(Cl)cc1
RELATION_SIGN: =
pIC50: 4.50

CHEM_SMILES: Cc1ccc(-c2cc(C(=O)NCCCCCCCC(=O)NO)nn2-c2ccc(S(N)(=O)=O)cc2)cc1
RELATION_SIGN: =
pIC50: 4.47

CHEM_SMILES: Cc1ccc(-c2cc(C(F)(F)F)nn2-c2ccc(S(=O)(=O)NCCCCCCC(=O)NO)cc2)cc1
RELATION_SIGN: =
pIC50: 5.10

CHEM_SMILES: COC(=O)Cc1c(C)n(Cc2ccc(-c3cn(CCCCCCC(=O)NO)nn3)cc2)c2ccc(OC)cc12
RELATION_SIGN: =
pIC50: 5.09

CHEM_SMILES: Cc1ccc(-c2cc(C(F)(F)F)nn2-c2ccc(S(=O)(=O)NCCCCCCCC(=O)NO)cc2)cc1
RELATION_SIGN: =
pIC50: 5.09

CHEM_SMILES: Cc1ccc(-c2cc(C(F)(F)F)nn2-c2ccc(S(=O)(=O)NCCCCCC(=O)NO)cc2)cc1
RELATION_SIGN: =
pIC50: 4.98

CHEM_SMILES: Cc1ccc(-c2cc(C(=O)NCCCCCC(=O)NO)nn2-c2ccc(S(N)(=O)=O)cc2)cc1
RELATION_SIGN: <
pIC50: 4.00

* * *

# Tested on: LNCaP
# METHOD_DESCRIPTION: Induction of cell cycle arrest in human LNCAP cells assessed as accumulation at greater G2 phase at 2.5 uM after 24 hrs by propidium iodide staining based FACS analysis (reference value: 0.20%)
# Type: functional
Think of 0.3% as a floor: if Activity stands on it or above, it is t; beneath it, f.

CHEM_SMILES: COC(=O)Cc1c(C)n(Cc2ccc(-c3cn(CCCCCCC(=O)NO)nn3)cc2)c2ccc(OC)cc12
GROUP: t

CHEM_SMILES: COc1ccc2c(c1)c(CC(=O)NCCCCCCC(=O)NO)c(C)n2C(=O)c1ccc(Cl)cc1
GROUP: t

CHEM_SMILES: O=C(CCCCCCC(=O)Nc1ccccc1)NO
GROUP: t

CHEM_SMILES: Cc1ccc(-c2cc(C(=O)NCCCCCCC(=O)NO)nn2-c2ccc(S(C)(=O)=O)cc2)cc1
GROUP: f

CHEM_SMILES: Cc1ccc(-c2cc(C(F)(F)F)nn2-c2ccc(S(=O)(=O)NCCCCCCC(=O)NO)cc2)cc1
GROUP: t

* * *

# TESTED_TARGET: Prostaglandin G/H synthase 1 (Ovis aries)
# METHOD_DESCRIPTION: Inhibition of sheep COX1 at 10 uM using arachidonic acid as substrate preincubated for 15 mins followed by substrate addition for 2 mins by Cayman based fluorescence assay
inhibition overview
ENDPOINT_NAME: inhibition

CHEM_SMILES: COc1ccc2c(c1)c(CC(=O)NCCCCCCC(=O)NO)c(C)n2C(=O)c1ccc(Cl)cc1
TESTED_TARGET: Prostaglandin G/H synthase 1 (Ovis aries)
OBSERVED_MEASUREMENT: 22.8%
--
CHEM_SMILES: Cc1ccc(-c2cc(C(F)(F)F)nn2-c2ccc(S(=O)(=O)NCCCCCC(=O)NO)cc2)cc1
TESTED_TARGET: Prostaglandin G/H synthase 1 (Ovis aries)
OBSERVED_MEASUREMENT: 16.2%
--
CHEM_SMILES: Cc1ccc(-c2cc(C(=O)NCCCCCCC(=O)NO)nn2-c2ccc(S(N)(=O)=O)cc2)cc1
TESTED_TARGET: Prostaglandin G/H synthase 1 (Ovis aries)
OBSERVED_MEASUREMENT: 26.4%
--
CHEM_SMILES: COc1ccc2c(c1)c(CC(=O)NCCCCCC(=O)NO)c(C)n2C(=O)c1ccc(Cl)cc1
TESTED_TARGET: Prostaglandin G/H synthase 1 (Ovis aries)
OBSERVED_MEASUREMENT: 40.2%
--
CHEM_SMILES: Cc1ccc(-c2cc(C(F)(F)F)nn2-c2ccc(S(=O)(=O)NCCCCCCC(=O)NO)cc2)cc1
TESTED_TARGET: Prostaglandin G/H synthase 1 (Ovis aries)
OBSERVED_MEASUREMENT: 61.4%
--
CHEM_SMILES: COc1ccc2c(c1)c(CC(=O)NCCCCCCCC(=O)NO)c(C)n2C(=O)c1ccc(Cl)cc1
TESTED_TARGET: Prostaglandin G/H synthase 1 (Ovis aries)
OBSERVED_MEASUREMENT: 42.8%
--
CHEM_SMILES: Cc1ccc(-c2cc(C(F)(F)F)nn2-c2ccc(S(=O)(=O)NCCCCCCCC(=O)NO)cc2)cc1
TESTED_TARGET: Prostaglandin G/H synthase 1 (Ovis aries)
OBSERVED_MEASUREMENT: 26.1%
--
CHEM_SMILES: COC(=O)Cc1c(C)n(Cc2ccc(-c3cn(CCCCCCCC(=O)NO)nn3)cc2)c2ccc(OC)cc12
TESTED_TARGET: Prostaglandin G/H synthase 1 (Ovis aries)
OBSERVED_MEASUREMENT: 7.08%

* * *

# TESTED_TARGET: Prostaglandin G/H synthase 2 (Homo sapiens)
# METHOD_DESCRIPTION: Inhibition of recombinant human COX2 using arachidonic acid as substrate preincubated for 15 mins followed by substrate addition for 2 mins by Cayman based fluorescence assay
Listed here are compounds together with their documented IC50.

CHEM_SMILES: Cc1ccc(-c2cc(C(=O)NCCCCCCC(=O)NO)nn2-c2ccc(S(C)(=O)=O)cc2)cc1
UNIT_NAME: µM
IC50: 4.44
--
CHEM_SMILES: Cc1ccc(-c2cc(C(F)(F)F)nn2-c2ccc(S(=O)(=O)NCCCCCCC(=O)NO)cc2)cc1
UNIT_NAME: µM
IC50: 0.3
--
CHEM_SMILES: COC(=O)Cc1c(C)n(Cc2ccc(-c3cn(CCCCCCCC(=O)NO)nn3)cc2)c2ccc(OC)cc12
UNIT_NAME: µM
IC50: 4.58
--
CHEM_SMILES: COc1ccc2c(c1)c(CC(=O)NCCCCCCC(=O)NO)c(C)n2C(=O)c1ccc(Cl)cc1
UNIT_NAME: µM
IC50: 0.33

* * *

# TESTED_TARGET: Prostaglandin G/H synthase 2 (Homo sapiens) (UniProt P35354)
# Sequence (whole entry): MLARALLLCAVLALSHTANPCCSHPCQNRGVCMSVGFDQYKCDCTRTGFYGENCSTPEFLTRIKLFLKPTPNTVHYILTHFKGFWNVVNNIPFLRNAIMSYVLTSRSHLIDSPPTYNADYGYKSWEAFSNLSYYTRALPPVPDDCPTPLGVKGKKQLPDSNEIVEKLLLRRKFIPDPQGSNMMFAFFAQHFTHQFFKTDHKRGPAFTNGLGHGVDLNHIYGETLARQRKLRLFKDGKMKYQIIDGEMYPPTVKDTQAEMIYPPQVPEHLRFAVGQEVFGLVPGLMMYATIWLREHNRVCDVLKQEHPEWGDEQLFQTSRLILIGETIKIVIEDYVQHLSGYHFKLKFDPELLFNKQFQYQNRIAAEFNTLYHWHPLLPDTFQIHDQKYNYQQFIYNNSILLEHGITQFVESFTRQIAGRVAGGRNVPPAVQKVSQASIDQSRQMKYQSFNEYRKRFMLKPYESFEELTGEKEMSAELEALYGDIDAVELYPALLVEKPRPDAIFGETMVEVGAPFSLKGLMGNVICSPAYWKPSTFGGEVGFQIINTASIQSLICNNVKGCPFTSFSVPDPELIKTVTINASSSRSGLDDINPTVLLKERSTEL
# METHOD_DESCRIPTION: Inhibition of recombinant human COX2 at 10 uM using arachidonic acid as substrate preincubated for 15 mins followed by substrate addition for 2 mins by Cayman based fluorescence assay

CHEM_SMILES: COc1ccc2c(c1)c(CC(=O)NCCCCCCC(=O)NO)c(C)n2C(=O)c1ccc(Cl)cc1
UNIT_NAME: %
inhibition: 98.1

CHEM_SMILES: COc1ccc2c(c1)c(CC(=O)NCCCCCCCC(=O)NO)c(C)n2C(=O)c1ccc(Cl)cc1
UNIT_NAME: %
inhibition: 96.2

CHEM_SMILES: Cc1ccc(-c2cc(C(=O)NCCCCCCC(=O)NO)nn2-c2ccc(S(C)(=O)=O)cc2)cc1
UNIT_NAME: %
inhibition: 60.2

CHEM_SMILES: Cc1ccc(-c2cc(C(F)(F)F)nn2-c2ccc(S(=O)(=O)NCCCCCCCC(=O)NO)cc2)cc1
UNIT_NAME: %
inhibition: 95.6

CHEM_SMILES: COc1ccc2c(c1)c(CC(=O)NCCCCCC(=O)NO)c(C)n2C(=O)c1ccc(Cl)cc1
UNIT_NAME: %
inhibition: 95.1

CHEM_SMILES: Cc1ccc(-c2cc(C(=O)NCCCCCCC(=O)NO)nn2-c2ccc(S(N)(=O)=O)cc2)cc1
UNIT_NAME: %
inhibition: 71.1

Cited source: ChEMBL document CHEMBL3875218
